Kd for assorted binders
study-system: T1, full-length human 14-3-3ζ fused to the C terminus of MBP (human, UniProt P63104 1-245)
T1 chain: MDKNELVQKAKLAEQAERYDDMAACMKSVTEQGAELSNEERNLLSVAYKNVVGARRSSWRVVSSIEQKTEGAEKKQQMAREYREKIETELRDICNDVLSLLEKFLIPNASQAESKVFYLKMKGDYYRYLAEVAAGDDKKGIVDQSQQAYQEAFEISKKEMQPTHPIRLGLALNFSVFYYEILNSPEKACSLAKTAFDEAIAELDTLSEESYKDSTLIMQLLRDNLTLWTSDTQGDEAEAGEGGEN
experiment-description: FP
Non-standard residues stand in square brackets, D forms with d. No end group written: not given here. *: point of attachment. Biotin = O=C1N[C@H]2[C@H](CS[C@H]2CCCCC(=O)*)N1; pT = C[C@@H](OP(=O)(O)O)[C@H](N)C(=O)O; ttds = NCCCOCCOCCOCCCNC(=O)CCC(=O)*
// units = µM; emit number, no label

INSERT INTO measurements (binder, readout_name, recorded_value) VALUES
  ('{Biotin-ttds}-RRVRKLPS[pT]TL [RSK1 phospho-PBM peptide RSK1_-2P]', 'Kd', 1.5),
  ('{Biotin-ttds}-RRVRKLPST[pT]L [RSK1 phospho-PBM peptide RSK1_-1P]', 'Kd', 1),
  ('{Biotin-ttds}-RLQRRRE[pT]QV [HPV18 E6 phospho-PBM peptide p18E6]', 'Kd', 22.4);

Alright, here's another binder for you.
Prompt line: Look up Kd of {Biotin-ttds}-SSRTRRE[pT]QL [HPV16 E6 phospho-PBM peptide p16E6] and report it.
Response line: 73.6

Source: paper PMC7961048
